Reference source: ChEMBL document CHEMBL1133257

# Experimental Target: Gonadotropin-releasing hormone receptor (Rattus norvegicus, UniProt P30969)
# Procedure Details: Binding affinity to Gonadotropin-releasing hormone receptor (GnRHr) in rat pituitary cells
Measured Parameter: IC50 (nM)

Example cases with answers are listed next.
>>> readout_number("O=c1[nH]c2cc(Cl)c([N+](=O)[O-])cc2c(OCCC2CCCCN2)c1-c1ccsc1 (centres undefined)")
900
>>> readout_number("O=c1[nH]c2cc(Cl)c([N+](=O)[O-])cc2c(OCCC2CCCCN2)c1-c1cccs1 (centres undefined)")
220
>>> readout_number("O=C(Nc1cc2c(OCCC3CCCCN3)c(-c3ccc4ccccc4c3)c(=O)[nH]c2cc1Cl)NC1CC1 (centres undefined)")
68
>>> readout_number("O=c1[nH]c2cc(Cl)c([N+](=O)[O-])cc2c(OCCC2CCCCN2)c1-c1cc(C(F)(F)F)cc(C(F)(F)F)c1 (centres undefined)")
71
>>> readout_number("O=c1[nH]c2cc(Cl)c([N+](=O)[O-])cc2c(OCCC2CCCCN2)c1-c1ccccc1 (centres undefined)")
410
>>> readout_number("O=[N+]([O-])c1cc2c(OCCC3CCCCN3)c(-c3ccc(Cl)c(Cl)c3)c(O)nc2cc1Cl (centres undefined)")
29
>>> readout_number("Cc1cc(CC#N)cc(-c2c(O)nc3cc(Cl)c([N+](=O)[O-])cc3c2OCCC2CCCCN2)c1 (centres undefined)")
18

1. Cc1cc(C)cc(-c2c(O)nc3cc(Cl)c(NC(=O)c4cnccn4)cc3c2OCCC2CCCCN2)c1 (centres undefined)
2. O=c1[nH]c2cc(Cl)c([N+](=O)[O-])cc2c(OCCC2CCCCN2)c1-c1ccccc1Cl (centres undefined)
**Query** Of 1 and 2 , whose reported IC50 is numerically smaller? Let me know the label of the one you choose.
**Result** 1
(1: 1.8 nM, 2: 360 nM)

====

# Experimental Target: Gonadotropin-releasing hormone receptor (Rattus norvegicus)
# Procedure Details: Binding affinity to Gonadotropin-releasing hormone receptor (GnRHr) in rat pituitary cells
pIC50: −log10 of the molar value.
Measured Parameter: pIC50

I. CCN(CC)Cc1cc(C)cc(-c2c(OCCC3CCCCN3)c3cc([N+](=O)[O-])c(Cl)cc3[nH]c2=O)c1 (configuration not stated)
II. Cc1cc(C)cc(-c2c(OCCC3CCCCN3)c3cc(NC(=O)Nc4ccncn4)c(Cl)cc3[nH]c2=O)c1 (configuration not stated)
III. COc1ccc(-c2c(O)nc3cc(Cl)c([N+](=O)[O-])cc3c2OCCC2CCCCN2)cc1OC (configuration not stated)
**Query** Rank the listed compounds according to pIC50, from the largest value downward. Thanks in advance for listing the labels in the requested order.
**Result** II, I, III

====

# Experimental Target: Gonadotropin-releasing hormone receptor (Homo sapiens)
# Sequence (P30968 whole entry): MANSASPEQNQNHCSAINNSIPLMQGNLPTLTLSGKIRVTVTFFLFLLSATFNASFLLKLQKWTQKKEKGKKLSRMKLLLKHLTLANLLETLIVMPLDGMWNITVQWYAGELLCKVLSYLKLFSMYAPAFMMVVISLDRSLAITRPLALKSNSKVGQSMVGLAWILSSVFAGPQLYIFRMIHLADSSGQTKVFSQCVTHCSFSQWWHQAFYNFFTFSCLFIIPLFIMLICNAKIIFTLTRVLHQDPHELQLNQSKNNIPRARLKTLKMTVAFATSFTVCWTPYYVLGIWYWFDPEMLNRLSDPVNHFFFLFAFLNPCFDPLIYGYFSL
# Procedure Details: Inhibition of recombinant human Gonadotropin-releasing hormone receptor
Measured Parameter: IC50 (nM)

>>> readout_number("O=C(Nc1ccncn1)c1cc2c(OCC[C@@H]3CCCCN3)c(-c3ccc(Cl)c(Cl)c3)c(O)nc2cc1Cl")
1
>>> readout_number("Cc1cc(C)cc(-c2c(OCC[C@@H]3CCCCN3)c3cc(NC(=O)NC4CC4)c(Cl)cc3[nH]c2=O)c1")
2.3

a. Cc1cc(-c2c(O)nc3cc(Cl)c(C(=O)Nc4ccncn4)cc3c2OCC[C@@H]2CCCCN2)cc(C)c1C
b. O=C(Nc1ccncn1)c1cc2c(OCC[C@@H]3CCCCN3)c(-c3cc(Cl)cc(Cl)c3)c(O)nc2cc1Cl
c. Cc1cc(C)cc(-c2c(O)nc3cc(Cl)c(NC(=O)c4cnccn4)cc3c2OCCC2CCCCN2)c1 (stereo not drawn)
d. Cc1cc(C)cc(-c2c(OCC[C@@H]3CCCCN3)c3cc(NC(=O)Nc4ccncn4)c(Cl)cc3[nH]c2=O)c1
**Query** Hey, quick one: sort these by IC50, largest value first please. Answer by writing out the labels in the requested order.
**Result** c, d, b, a
(c: 10 nM, d: 1.8 nM, b: 1.1 nM, a: 0.3 nM)

I. Cc1cc(C)cc(-c2c(OCC[C@@H]3CCCCN3)c3cc(NC(=O)Nc4cnccn4)c(Cl)cc3[nH]c2=O)c1
II. O=C(Nc1ccncn1)c1cc2c(OCC[C@@H]3CCCCN3)c(-c3ccc(Cl)s3)c(O)nc2cc1Cl
**Query** Please indicate which has the smaller reported IC50: I , or II . Choose, then provide that item's label.
**Result** I

====

# Experimental Target: Gonadotropin-releasing hormone receptor (Rattus norvegicus, UniProt P30969)
# Sequence (P30969 whole entry): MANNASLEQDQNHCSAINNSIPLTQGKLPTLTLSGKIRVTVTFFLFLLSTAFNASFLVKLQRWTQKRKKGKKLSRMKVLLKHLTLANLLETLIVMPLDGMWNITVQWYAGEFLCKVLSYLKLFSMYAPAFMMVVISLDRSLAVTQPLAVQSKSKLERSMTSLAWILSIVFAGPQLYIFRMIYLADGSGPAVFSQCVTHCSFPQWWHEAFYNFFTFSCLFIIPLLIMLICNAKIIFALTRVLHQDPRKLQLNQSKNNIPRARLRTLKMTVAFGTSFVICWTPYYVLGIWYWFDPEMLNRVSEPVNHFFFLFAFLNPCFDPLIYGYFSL
# Procedure Details: Binding affinity to Gonadotropin-releasing hormone receptor (GnRHr) in rat pituitary cells
pIC50: −log10 of the molar value.
Measured Parameter: pIC50

The cases that follow already have their pIC50 on record.
>>> readout_number("Cc1cccc(-c2c(O)nc3cc(Cl)c([N+](=O)[O-])cc3c2OCCC2CCCCN2)c1 (stereo not drawn)")
7.57
>>> readout_number("Cc1cc(C)cc(-c2c(O)nc3cc(Cl)c(NC(=O)Nc4ccccn4)cc3c2OCCC2CCCCN2)c1 (stereo not drawn)")
7.82
>>> readout_number("Cc1ccc(-c2c(OCCC3CCCCN3)c3cc([N+](=O)[O-])c(Cl)cc3[nH]c2=O)cc1C (stereo not drawn)")
7.74
>>> readout_number("Cc1cc(C)cc(-c2c(O)nc3cc(Cl)c(NC(=O)Nc4cccnc4)cc3c2OCCC2CCCCN2)c1 (stereo not drawn)")
7.70

1. O=C(Nc1cc2c(OCCC3CCCCN3)c(-c3ccc(Cl)c(Cl)c3)c(O)nc2cc1Cl)NC1CC1 (stereo not drawn)
2. CC(C)(C)c1ccc(-c2c(OCCC3CCCCN3)c3cc([N+](=O)[O-])c(Cl)cc3[nH]c2=O)cc1 (stereo not drawn)
3. Cc1cc(C)cc(-c2c(O)nc3cc(Cl)c(NC(=O)NC4CC4)cc3c2OCCC2CCCCN2)c1 (stereo not drawn)
4. O=[N+]([O-])c1cccc(-c2c(O)nc3cc(Cl)c([N+](=O)[O-])cc3c2OCCC2CCCCN2)c1 (stereo not drawn)
**Query** List these items ordered by pIC50, big to small. The reply should contain the labels ordered as requested.
**Result** 3, 1, 4, 2

====

# Procedure Details: Compound was evaluated for its antagonism in CHO cells expressing the human receptor (hPI)
# Assay type: functional, cell-based
pIC50: −log10 of the molar value.
Measured Parameter: pIC50

>>> readout_number("Cc1cc(-c2c(O)nc3cc(Cl)c(C(=O)Nc4ccncn4)cc3c2OCC[C@@H]2CCCCN2)ccc1I")
8.15
>>> readout_number("O=C(Nc1ccncn1)c1cc2c(OCC[C@@H]3CCCCN3)c(-c3ccc4c(c3)CCC4)c(O)nc2cc1Cl")
7.80
>>> readout_number("Cc1cc(C)cc(-c2c(O)nc3cc(Cl)c(NC(=O)c4cncnc4)cc3c2OCC[C@@H]2CCCCN2)c1")
6.65

A. Cc1cc(C)cc(-c2c(O)nc3cc(Cl)c(NC(=O)c4cnccn4)cc3c2OCC[C@@H]2CCCCN2)c1
B. Cc1cc(-c2c(O)nc3cc(Cl)c(C(=O)Nc4ccncn4)cc3c2OCC[C@@H]2CCCCN2)cc(C)c1C
C. Cc1cc(C)cc(-c2c(O)nc3cc(Cl)c(CC(=O)Nc4ccncn4)cc3c2OCCC2CCCCN2)c1 (stereo not drawn)
D. Cc1cc(C)cc(-c2c(O)nc3cc(Cl)c(NC(=O)Nc4cncnc4)cc3c2OCC[C@@H]2CCCCN2)c1
E. Cc1cc(C)cc(-c2c(O)nc3cc(Cl)c(NC(=O)Nc4cnccn4)cc3c2OCCC2CCCCN2)c1 (stereo not drawn)
**Query** // sort entries: pIC50, high to low Provide your answer as the labels ordered per the instruction.
**Result** B, E, A, C, D
